Taken from patent US20240075137A1.

STUDY SYSTEM: T1, cynomolgus PVRIG on cells (cynomolgus, UniProt A0A2K5WVV8 41-322)
T1 construct: whole, on cells; also called cPVRIG; expi cPVRIG cells
T1 sequence: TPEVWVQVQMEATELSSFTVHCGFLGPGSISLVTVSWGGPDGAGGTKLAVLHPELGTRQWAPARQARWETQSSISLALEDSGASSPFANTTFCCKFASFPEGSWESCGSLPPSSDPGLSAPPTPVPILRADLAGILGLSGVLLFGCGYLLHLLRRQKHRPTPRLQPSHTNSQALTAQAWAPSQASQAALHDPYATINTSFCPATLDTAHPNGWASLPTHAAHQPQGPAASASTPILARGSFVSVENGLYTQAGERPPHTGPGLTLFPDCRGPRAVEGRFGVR
ASSAY INFO: FACS, expi cPVRIG over expi parental cells, 3.3ug/ml
QUANTITY: gMFIr Expi cyno OE/par
// response body must contain only the number

Asked: Identify the reported gMFIr Expi cyno OE/par for the following entry. CHA.7.546 (antibody, V domains shown) VH: QIQLVQSGPELKKPGETVKISCKASGYTFTTYGMSWVKQAPGKGLKWMGWINTYSGVSTYADDFEGRFAFSLETSVSTAYLQINNLKNEDTATYFCARLGRGSTTGAGYLDVWGTGTTVTVSS VL: DIVLTQSPAIMSASPGEKVSMTCSASSSVSSWYLHWYQQKSGASPKLWIYGTSNLASGVPARFSGSGSGTSYSLTISSVEAEDAATYYCQQYHSDPYTFGSGTKLEIK
Given back: 0.85
